molecular target: h-GABA-A α2β2γ1 (Homo sapiens (Human), UniProt P47869+Q8N1C3); experiment: Two-electrode voltage clamp electrophysiology in Xenopus oocytes expressing GABAA receptors, modulation of GABA EC20 current; type: cell-based; settings: Xenopus oocytes, GABA EC20, test compound at approx. 30-fold its Ki α2β2γ1
Kindly state Fold increase h-GABA-A α2β2γ1 oocyte @ 30-fold Ki for each of the entries shown.

Ask | Request body: readout Fold increase h-GABA-A α2β2γ1 oocyte @ 30-fold Ki, system h-GABA-A α2β2γ1 (Homo sapiens (Human), UniProt P47869+Q8N1C3), query `C[C@@H]1N=C(c2c(F)cccc2F)c2c(ccc(Cl)c2Cl)-n2ccc(=O)nc21` . Return the value.
Reply | 2.05

Ask | Same lookup for `Cc1cn2c(nc1=O)[C@H](C)N=C(c1c(F)cccc1F)c1c-2ccc(C(F)(F)F)c1Cl` , please.
Reply | 1.99

Ask | Same lookup for `CCO/C=C/c1cn2c(nc1=O)CN=C(c1c(F)cccc1F)c1c-2ccc(Cl)c1Cl` , please.
Reply | 2.13

Ask | Same lookup for `CCOCCc1cn2c(nc1=O)[C@H](C)N=C(c1c(F)cccc1F)c1c-2ccc(C(F)(F)F)c1Cl` , please.
Reply | 2.13

Ask | Same lookup for `C[C@@H]1N=C(c2c(F)cccc2F)c2c(ccc(Cl)c2Br)-n2ccc(=O)nc21` , please.
Reply | 2.21

Ask | Same lookup for `C[C@@H]1N=C(c2c(F)cccc2F)c2c(ccc(Cl)c2Br)-n2cc(Br)c(=O)nc21` , please.
Reply | 2.07

Ask | Same lookup for `CCc1cn2c(nc1=O)[C@H](C)N=C(c1c(F)cccc1F)c1c-2ccc(Cl)c1Cl` , please.
Reply | 1.66

Ask | Same lookup for `CCc1cn2c(nc1=O)[C@H](C)N=C(c1c(F)cccc1F)c1c-2ccc(C(F)(F)F)c1Cl` , please.
Reply | 1.7
